These measurements were taken from patent US10202373B2.

Biological target: UniProtKB Q8NEB9
Assay: Human VPS34 enzyme assay (Adapta TR-FRET)
Type: biochemical
Conditions: 1 h; inhibition of VPS34 at a 1.11 μM concentration; read-out: Percent Inhibition
Experimental: VPS34 (accession number GB:BC033004) was cloned into pDEST20-Thombin as N-terminal GST tagged fusion proteins using the Gateway system (Invitrogen, catalog#11804-013). […] The plates are then incubated for 30 minutes at room temperature with shaking and then read on a BMG PheraStar Plus reader. For the assay methods described above, test compound percent inhibition, at various concentrations, is calculated relative to control (DMSO and EDTA) treated samples. […]
Endpoint label: inhibition at 1.11 µM (%)

>>> df
                                   compound  measurement_units  quantitative_readout
0  c1cc(Nc2cc(-c3cncc4[nH]ccc34)ccn2)ncn1 [Compound I-50]                  %                    82
1  CC(=O)Nc1cc(-c2cnc(C)c3c2ccn3CC2CC2)ccn1 [Compound I-36]                  %                    79

----------
A collection of compounds and their measured pIC50
Target: human VPS34 (Homo sapiens (Human), UniProt Q8NEB9)
Sequence (Q8NEB9 whole entry): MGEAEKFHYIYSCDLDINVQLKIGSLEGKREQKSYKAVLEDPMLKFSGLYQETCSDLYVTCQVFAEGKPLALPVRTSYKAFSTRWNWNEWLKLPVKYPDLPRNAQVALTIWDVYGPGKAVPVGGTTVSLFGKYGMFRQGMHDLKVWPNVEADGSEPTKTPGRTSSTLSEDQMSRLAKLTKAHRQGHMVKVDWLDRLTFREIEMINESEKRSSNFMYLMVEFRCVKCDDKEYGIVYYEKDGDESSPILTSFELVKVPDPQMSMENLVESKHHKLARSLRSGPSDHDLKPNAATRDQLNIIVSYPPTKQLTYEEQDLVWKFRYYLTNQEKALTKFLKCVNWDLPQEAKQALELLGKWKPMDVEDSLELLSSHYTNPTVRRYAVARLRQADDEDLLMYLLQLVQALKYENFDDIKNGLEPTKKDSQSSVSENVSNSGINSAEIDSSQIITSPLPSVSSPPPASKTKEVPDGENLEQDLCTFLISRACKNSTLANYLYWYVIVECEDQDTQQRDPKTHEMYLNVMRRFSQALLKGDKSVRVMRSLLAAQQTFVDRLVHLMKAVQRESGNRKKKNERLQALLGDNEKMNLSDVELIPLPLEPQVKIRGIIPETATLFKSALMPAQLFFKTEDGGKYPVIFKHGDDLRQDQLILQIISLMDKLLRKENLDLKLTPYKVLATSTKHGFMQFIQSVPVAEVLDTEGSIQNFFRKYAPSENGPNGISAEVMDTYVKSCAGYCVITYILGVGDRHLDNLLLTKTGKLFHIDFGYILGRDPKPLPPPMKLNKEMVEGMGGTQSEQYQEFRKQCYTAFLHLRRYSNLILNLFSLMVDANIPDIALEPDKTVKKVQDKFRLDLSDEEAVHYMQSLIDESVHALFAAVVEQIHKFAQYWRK
Assay: Human VPS34 enzyme assay (Adapta TR-FRET)
Type: biochemical
Conditions: human VPS34 enzyme assay, IC50 ranges
pIC50: −log10 of the molar value.

Recorded pIC50, per entry:
>>> print(df.to_string())
                                   compound                             system_tested        result
0  CC(=O)Nc1cc(-c2cnc(C)c3c2ccn3S(=O)(=O)c2ccccc2)ccn1 [Compound I-4]  human VPS34 (Homo sapiens (Human), UniProt Q8NEB9)        > 8.00
1  CC(=O)Nc1cc(-c2cnc(N(C)C)c3c2ccn3S(=O)(=O)C2CC2)ccn1 [Compound I-18]  human VPS34 (Homo sapiens (Human), UniProt Q8NEB9)  7.30 to 8.00
2  CS(=O)(=O)n1ccc2c(-c3ccnc(N)c3)cncc21 [Compound I-32]  human VPS34 (Homo sapiens (Human), UniProt Q8NEB9)        < 7.00

Qu. Query (compound): COC(=O)Nc1cc(-c2cncc3c2ccn3S(C)(=O)=O)ccn1 [Compound I-29] ; field requested: pIC50
Ans. 7.30 to 8.00

Qu. Query (compound): CC(=O)Nc1cc(-c2cnc(CN)c3c2ccn3S(=O)(=O)C2CC2)ccn1 [Compound I-41] ; field requested: pIC50
Ans. 7.30 to 8.00

----------
pIC50: −log10 of the molar value.
human VPS34 (Homo sapiens (Human)) pIC50 data

Recorded pIC50, per entry:
In [3]: df
Out[3]:
                              smiles_string  endpoint_label        result
0  CC(=O)Nc1cc(-c2cncc3c2ccn3S(=O)(=O)c2ccccc2)ccn1           pIC50        > 8.00
1  COC(=O)Nc1cc(-c2cnc(C)c3c2ccn3S(=O)(=O)c2ccccc2)ccn1           pIC50        > 8.00
2  CC(=O)Nc1cc(-c2cnc(C)c3c2ccn3S(=O)(=O)C2CC2)ccn1           pIC50  7.30 to 8.00
3  Cc1ncc(-c2ccnc(NC(=O)CO)c2)c2ccn(S(=O)(=O)C3CC3)c12           pIC50  7.30 to 8.00

Qu. Query (molecule): CC(=O)Nc1cc(-c2cnc(C)c3c2ccn3S(=O)(=O)N2CCCC2)ccn1 ; field requested: pIC50
Ans. > 8.00

Qu. Query (molecule): CC(=O)Nc1cc(-c2cnc(C)c3c2ccn3S(=O)(=O)c2ccccc2C)ccn1 ; field requested: pIC50
Ans. 7.30 to 8.00

Qu. Query (molecule): CCOC(=O)Nc1cc(-c2cnc(C)c3c2ccn3S(=O)(=O)c2ccccc2)ccn1 ; field requested: pIC50
Ans. 7.30 to 8.00

Qu. Query (molecule): COC(=O)Nc1cc(-c2cnc(C)c3c2ccn3S(=O)(=O)C2CCCC2)ccn1 ; field requested: pIC50
Ans. 7.30 to 8.00
